Just for reference, paper PMC9830933 is where these values come from.

- experimentNotes: Aqueous solubility
- Format: physicochemical

>  <smilesInput>
COc1ccc2c(c1)c(CC(=O)OC[C@H]1O[C@@](C#N)(c3ccc4c(N)ncnn34)[C@H](O)[C@@H]1O)c(C)n2C(=O)c1ccc(Cl)cc1

>  <aqueous solubility (in words)>
hardly soluble

$$$$
>  <smilesInput>
N#C[C@@]1(c2ccc3c(N)ncnn23)O[C@H](COC(=O)Cc2ccccc2Nc2c(Cl)cccc2Cl)[C@@H](O)[C@H]1O

>  <aqueous solubility (in words)>
hardly soluble

$$$$
